# ASSAY_TARGET: human TYK2 (JH2domain-pseudokinase) (Homo sapiens (Human), UniProt P29597)
# Sequence (P29597 556-888): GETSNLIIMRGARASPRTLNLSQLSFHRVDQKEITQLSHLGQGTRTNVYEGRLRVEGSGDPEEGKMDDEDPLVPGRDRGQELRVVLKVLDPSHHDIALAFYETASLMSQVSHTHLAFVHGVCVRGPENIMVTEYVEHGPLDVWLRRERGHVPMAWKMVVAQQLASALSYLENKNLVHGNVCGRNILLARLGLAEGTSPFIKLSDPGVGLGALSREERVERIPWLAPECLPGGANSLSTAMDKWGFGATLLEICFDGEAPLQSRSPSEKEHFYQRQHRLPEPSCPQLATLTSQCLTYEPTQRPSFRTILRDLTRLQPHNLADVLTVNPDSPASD
# PROTOCOL_NOTES: TYK2 JH2 Domain Binding Assay (KINOMEscan, DiscoveRx)
# DETAILS: 11-point dilution, duplicate
pKd: −log10 of the molar value.
OBSERVED_PROPERTY: pKd

compound="Cc1c(-c2ccc(Nc3cc(NC(=O)C4CC4(F)F)nc4[nH]c(C(F)F)nc34)c(S(C)(=O)=O)c2)cnn1C (stereo not shown)" observed_property=pKd value="9.30 to 10.00"

Let us examine a further case.
Q) What value of pKd has been reported for the following compound? `Cc1nc(-c2ccc(Nc3cc(Nc4cnc(C)c(C)n4)nc4[nH]c(C(F)F)nc34)c(N(C)S(C)(=O)=O)c2)n(C)n1`
A) 9.30 to 10.00
